- test.target: T1, naked peptide TSSMEDYVNF (human)
- T1 peptide: TSSMEDYVNF
- measurement.protocol: ELISA naked peptide; scFv 1 ug/mL; repI
quantity: OD450

# input Which value of OD450 has been reported for Comparative antibody 1 (Comp-1) scFv, SEQ ID NO: 10 from WO2023/037125 A1, His-tagged (scFv) scFv: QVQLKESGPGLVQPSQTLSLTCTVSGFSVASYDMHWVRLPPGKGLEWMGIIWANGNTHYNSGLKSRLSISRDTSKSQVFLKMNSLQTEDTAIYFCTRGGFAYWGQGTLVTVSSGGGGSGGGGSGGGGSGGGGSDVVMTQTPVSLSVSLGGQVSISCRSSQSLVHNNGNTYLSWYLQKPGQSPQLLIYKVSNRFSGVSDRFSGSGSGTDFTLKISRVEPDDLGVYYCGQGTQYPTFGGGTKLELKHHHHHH in the records?
# output 0.03 OD

# input Which value of OD450 has been reported for CCR9_HUM2 scFv (humanized anti-CCR9 scFv, SEQ ID NO: 17 with C-terminal 6xHis tag) (scFv) scFv: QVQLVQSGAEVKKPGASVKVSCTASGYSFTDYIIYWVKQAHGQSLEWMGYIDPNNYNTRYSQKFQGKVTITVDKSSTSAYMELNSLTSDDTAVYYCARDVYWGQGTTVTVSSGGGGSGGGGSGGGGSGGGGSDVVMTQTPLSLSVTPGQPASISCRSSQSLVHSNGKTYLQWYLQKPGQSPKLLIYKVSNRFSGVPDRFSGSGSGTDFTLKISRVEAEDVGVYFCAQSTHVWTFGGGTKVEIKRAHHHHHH in the records?
# output 0.03 OD

# input Which value of OD450 has been reported for Comparative antibody 2 (Comp-2) scFv, 243LO326 (VH SEQ ID NO: 51 and VL SEQ ID NO: 52 of WO 2022/195028 A2), His-tagged (scFv) scFv: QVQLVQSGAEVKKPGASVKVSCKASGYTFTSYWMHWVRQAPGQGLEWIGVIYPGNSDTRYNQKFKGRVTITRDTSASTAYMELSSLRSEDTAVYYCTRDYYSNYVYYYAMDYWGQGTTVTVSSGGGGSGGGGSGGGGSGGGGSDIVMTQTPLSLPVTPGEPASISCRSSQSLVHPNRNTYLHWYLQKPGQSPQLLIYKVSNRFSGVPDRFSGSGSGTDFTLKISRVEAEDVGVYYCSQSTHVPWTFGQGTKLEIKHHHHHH in the records?
# output 0.03 OD

# input Which value of OD450 has been reported for Comparative antibody 3 (Comp-3) scFv, SR_92R (Somovilla-Crespo et al. 2018), His-tagged (scFv) scFv: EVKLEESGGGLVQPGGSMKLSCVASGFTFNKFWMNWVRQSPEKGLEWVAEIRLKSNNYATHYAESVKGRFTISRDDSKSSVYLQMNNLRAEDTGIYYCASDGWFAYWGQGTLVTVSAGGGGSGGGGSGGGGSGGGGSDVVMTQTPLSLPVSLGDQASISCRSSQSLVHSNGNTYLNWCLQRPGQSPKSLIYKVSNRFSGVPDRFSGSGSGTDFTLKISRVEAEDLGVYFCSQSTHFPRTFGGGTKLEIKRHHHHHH in the records?
# output 0.04 OD

These data points were gathered from patent US20260232732A1.
